Data provenance is PubChem BioAssay (EPA / NIEHS).

# Read-out: ABC Transporter (ABCC2), ABCC2 (gene 1244)
# Measurement protocol: LTEA_HepaRG_ABCC2: Life Technologies and Expression Analysis (LTEA) Assay for ABC Transporter (ABCC2) using HepaRG (AID 2283464)
# Condition description: mRNA level, 48 h; actives raise or lower the signal
Calls of active or inactive are those of the source. How the source made its calls: active means hit-call score of the fitted dose curve at least 0.9, where 1 is the maximum; inactive means score below 0.9.
In this exercise, the only acceptable responses are true = active, false = inactive

Solved cases (5 shown):
Compound: Cc1cc(CCN2CCN(c3nsc4ccccc34)CC2)cc2c1NC(=O)CC2(C)C
Discrete label: true
//
Compound: CCOC(=O)CC(O)(CC(=O)OCC)C(=O)OCC
Discrete label: false
//
Compound: Cc1cc(C)c(O)c(C)c1
Discrete label: true
//
Compound: CCCCCCCCCCCCCCCS(=O)(=O)Oc1ccccc1
Discrete label: true
//
Compound: CCC(=C(c1ccc(O)cc1)c1ccc(OCCN(C)C)cc1)c1ccccc1
Discrete label: true

Q. Short answer needed: outcome of this test for CN1CCN(c2ccccc2/C=C2\SCCN(c3ccc(Cl)c(Cl)c3)C2=O)CC1 ?
A. false

Q. Queued: CC1=C(/C=C/C(C)=C/C=C/C(C)=C/C(=O)O)C(C)(C)CCC1
A. false

Q. Queued: CCCCCCCCCCCCc1ccccc1S(=O)(=O)O
A. true

Q. Queued: CC(C)(C)c1cc(C(C)(C)C)c(O)c(C(C)(C)C)c1
A. true

Q. Queued: OCCC(F)(F)C(F)(F)C(F)(F)C(F)(F)C(F)(F)C(F)(F)C(F)(F)C(F)(F)F
A. false

Q. Queued: C[C@@H]1C[C@H]2[C@@H]3CCC4=CC(=O)C=C[C@]4(C)[C@@]3(F)[C@@H](O)C[C@]2(C)[C@@]1(O)C(=O)COP(=O)(O)O
A. false

Q. Queued: CC#C[C@]1(O)CC[C@H]2[C@@H]3CCC4=CC(=O)CCC4=C3[C@@H](c3ccc(N(C)C)cc3)C[C@@]21C
A. true

Q. Queued: CCCCC(CC)COC(=O)CCCCC(=O)OCc1ccccc1 (configuration not stated)
A. false

Q. Queued: O=c1c(-c2ccc(O)cc2)coc2cc(O)ccc12
A. false

Q. Queued: O=[N+]([O-])c1ccc(O)cc1
A. false

Q. Queued: OCCC(F)(F)C(F)(F)C(F)(F)C(F)(F)C(F)(F)C(F)(F)F
A. false

Q. Queued: CC(=O)CC(C)(C)O
A. false

====

# Read-out: Fatty acid synthase (Homo sapiens) (UniProt P49327)
# Sequence (P49327 whole entry, looked up): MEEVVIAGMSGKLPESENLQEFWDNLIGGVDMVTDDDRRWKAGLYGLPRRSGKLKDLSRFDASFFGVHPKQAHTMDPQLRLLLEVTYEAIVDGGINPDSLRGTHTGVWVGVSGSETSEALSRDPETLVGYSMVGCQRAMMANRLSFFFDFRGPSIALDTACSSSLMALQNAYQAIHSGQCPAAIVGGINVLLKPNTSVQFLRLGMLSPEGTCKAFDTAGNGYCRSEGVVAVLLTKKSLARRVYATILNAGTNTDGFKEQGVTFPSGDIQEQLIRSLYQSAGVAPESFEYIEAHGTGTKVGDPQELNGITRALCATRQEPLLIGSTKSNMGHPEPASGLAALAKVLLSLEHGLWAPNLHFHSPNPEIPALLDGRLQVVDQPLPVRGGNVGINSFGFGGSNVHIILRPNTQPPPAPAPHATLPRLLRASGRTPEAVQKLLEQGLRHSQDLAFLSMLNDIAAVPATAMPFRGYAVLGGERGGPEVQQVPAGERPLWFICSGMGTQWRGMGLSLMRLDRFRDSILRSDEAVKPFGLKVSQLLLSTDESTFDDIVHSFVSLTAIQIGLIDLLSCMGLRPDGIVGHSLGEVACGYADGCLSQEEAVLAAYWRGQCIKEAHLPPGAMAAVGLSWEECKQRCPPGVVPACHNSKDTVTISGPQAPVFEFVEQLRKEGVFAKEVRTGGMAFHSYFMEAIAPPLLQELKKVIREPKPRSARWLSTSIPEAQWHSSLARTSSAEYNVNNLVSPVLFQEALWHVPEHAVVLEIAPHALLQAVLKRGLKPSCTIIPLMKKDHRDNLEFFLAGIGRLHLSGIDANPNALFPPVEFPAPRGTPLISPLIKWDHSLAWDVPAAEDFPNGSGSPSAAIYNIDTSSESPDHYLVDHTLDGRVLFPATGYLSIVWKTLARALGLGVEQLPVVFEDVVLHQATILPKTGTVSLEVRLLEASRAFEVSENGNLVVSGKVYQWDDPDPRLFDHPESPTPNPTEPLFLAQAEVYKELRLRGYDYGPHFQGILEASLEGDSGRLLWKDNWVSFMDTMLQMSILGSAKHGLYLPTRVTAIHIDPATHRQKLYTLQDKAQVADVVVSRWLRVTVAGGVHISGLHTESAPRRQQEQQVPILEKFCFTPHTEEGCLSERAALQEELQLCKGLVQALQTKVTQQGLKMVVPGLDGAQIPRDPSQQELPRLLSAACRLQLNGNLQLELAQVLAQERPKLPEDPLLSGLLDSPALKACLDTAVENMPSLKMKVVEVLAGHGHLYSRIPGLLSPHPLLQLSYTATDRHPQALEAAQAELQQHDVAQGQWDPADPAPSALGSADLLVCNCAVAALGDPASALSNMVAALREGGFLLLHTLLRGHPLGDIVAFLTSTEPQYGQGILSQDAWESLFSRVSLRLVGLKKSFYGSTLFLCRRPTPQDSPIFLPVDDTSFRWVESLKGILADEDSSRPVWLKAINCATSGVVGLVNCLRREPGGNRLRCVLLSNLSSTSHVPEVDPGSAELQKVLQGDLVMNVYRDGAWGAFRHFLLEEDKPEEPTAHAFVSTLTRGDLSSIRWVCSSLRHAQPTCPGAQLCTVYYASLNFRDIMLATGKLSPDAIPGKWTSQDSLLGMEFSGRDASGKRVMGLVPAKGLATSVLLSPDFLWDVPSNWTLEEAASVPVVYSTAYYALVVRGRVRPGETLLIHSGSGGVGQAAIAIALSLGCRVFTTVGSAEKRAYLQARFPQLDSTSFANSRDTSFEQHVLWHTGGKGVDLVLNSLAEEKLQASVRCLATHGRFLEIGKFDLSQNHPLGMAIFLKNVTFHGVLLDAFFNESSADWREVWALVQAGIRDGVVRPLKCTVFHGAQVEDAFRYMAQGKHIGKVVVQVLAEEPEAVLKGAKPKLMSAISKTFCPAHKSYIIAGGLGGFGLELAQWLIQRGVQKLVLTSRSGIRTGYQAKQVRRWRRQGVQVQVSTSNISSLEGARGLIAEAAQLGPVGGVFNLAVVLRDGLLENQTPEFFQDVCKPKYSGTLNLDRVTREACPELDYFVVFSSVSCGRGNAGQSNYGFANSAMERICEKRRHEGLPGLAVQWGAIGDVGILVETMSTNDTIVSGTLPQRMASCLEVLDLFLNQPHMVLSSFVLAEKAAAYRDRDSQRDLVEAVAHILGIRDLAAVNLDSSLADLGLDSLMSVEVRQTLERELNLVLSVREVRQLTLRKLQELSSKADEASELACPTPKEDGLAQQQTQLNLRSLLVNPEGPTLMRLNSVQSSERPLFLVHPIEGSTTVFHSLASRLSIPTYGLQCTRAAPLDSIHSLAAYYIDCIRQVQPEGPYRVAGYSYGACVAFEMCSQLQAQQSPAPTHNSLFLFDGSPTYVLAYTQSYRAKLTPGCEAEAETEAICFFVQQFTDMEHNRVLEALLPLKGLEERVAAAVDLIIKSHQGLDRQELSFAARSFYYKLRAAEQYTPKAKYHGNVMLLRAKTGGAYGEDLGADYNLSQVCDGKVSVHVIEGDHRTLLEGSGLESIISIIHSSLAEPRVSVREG
# Measurement protocol: LTEA_HepaRG_FASN: Life Technologies and Expression Analysis (LTEA) Assay for Fatty Acid Synthase (FASN) using HepaRG (AID 2283448);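 on AC50: differentiated human HepaRG liver cells in serum-free induction medium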
# Condition description: mRNA level, 48 h; actives raise or lower the signal
Active and inactive are the calls of the source. Rule for the calls: active = hit-call score of the fitted dose curve at least 0.9, where 1 is the maximum; inactive = score below 0.9.
Endpoint: AC50

Below are worked cases with known answers.
Compound: NC(=O)N(O)[C@@H]1C=C[C@H](Oc2cccc(Oc3ccc(F)cc3)c2)C1
AC50: 85 µM (active)
//
Compound: CCCCCCCCOC(=O)CCCCCCCCC(=O)OCCCCCCCC
AC50: inactive
//
Compound: O=C(O)Cc1cc(I)c(Oc2cc(I)c(O)c(I)c2)c(I)c1
AC50: 60.2 µM (active)
//
Compound: O=[N+]([O-])c1ccc(O)cc1
AC50: inactive
//
Compound: c1ccc2c(c1)ccc1ccccc12
AC50: inactive
//
Compound: CC(O)CO (configuration not stated)
AC50: inactive

# input for lookup
Q. Name the reported AC50 value associated with the compound CC(C)(C)c1ccc(O)c(C(C)(C)C)c1
A. inactive

====

# Tested on: guinea pig Histamine Receptor (H2), gene 100729734
# Measurement protocol: NVS_GPCR_gH2: NovaScreen (NVS) G Protein-Coupled Receptor Assay for guinea pig Histamine Receptor (H2) (AID 2283342)
Records with an inconclusive call do not appear. Active and inactive are the calls of the source. How the source made its calls: active means hit-call score of the fitted dose curve at least 0.9, where 1 is the maximum; inconclusive means response in the unintended direction; inactive means score below 0.9.
In this exercise, the only acceptable responses are active, inactive

Smiles data: CC(=O)NC1(c2cccc(F)c2)CCN(CC[C@@]2(c3ccc(Cl)c(Cl)c3)CN(c3ccccc3)C(=O)CO2)CC1
Assay target: guinea pig Histamine Receptor (H2), gene 100729734
Discrete label: active

Q. Short answer needed: outcome of this test for CCCOc1sc(C(=O)N2CCC(c3cc(CN)ccc3F)CC2)c(C)c1Br ?
A. active

Q. Queued: CCC(=C(c1ccc(O)cc1)c1ccc(OCCN(C)C)cc1)c1ccccc1
A. active

Q. Queued: C[C@@H]1C[C@H]2[C@@H]3CCC4=CC(=O)C=C[C@]4(C)[C@@]3(F)[C@@H](O)C[C@]2(C)[C@@]1(O)C(=O)COP(=O)(O)O
A. inactive

Q. Queued: CC#C[C@]1(O)CC[C@H]2[C@@H]3CCC4=CC(=O)CCC4=C3[C@@H](c3ccc(N(C)C)cc3)C[C@@]21C
A. inactive

====

# Read-out: sulfotransferase 2A1 (SULT2A1), SULT2A1 (gene 6822)
# Measurement protocol: LTEA_HepaRG_SULT2A1: Life Technologies and Expression Analysis (LTEA) Assay for sulfotransferase 2A1 (SULT2A1) using HepaRG (AID 2283531)
# Condition description: mRNA level, 48 h; actives raise or lower the signal
Activity calls are given as the source filed them. Rule for the calls: active = hit-call score of the fitted dose curve at least 0.9, where 1 is the maximum; inactive = score below 0.9.
In this exercise, the only acceptable responses are 1 for active, 0 for inactive

Compound: C#C[C@]1(O)CC[C@H]2[C@@H]3CCC4=CC(=O)CC[C@@H]4[C@H]3CC[C@@]21C
Discrete label: 1
//
Compound: CCCOC(=O)c1ccc(O)cc1
Discrete label: 0
//
Compound: N#C[C@@H]1CC(F)(F)CN1C(=O)CNC1CC2CCC(C1)N2c1ncccn1 (some centres not stated)
Discrete label: 0
//
Compound: CC(=O)CC(C)(C)O
Discrete label: 0

Q. Short answer needed: outcome of this test for NC(=O)N1C(=O)C(C(=O)c2cc(Cl)cs2)c2cc(F)c(Cl)cc21 (configuration not stated) ?
A. 1

Q. Queued: CCCCCCCCC(=O)O
A. 0

Q. Queued: O=c1c(-c2ccc(O)cc2)coc2cc(O)ccc12
A. 0

Q. Queued: CN1CCN(c2ccccc2/C=C2\SCCN(c3ccc(Cl)c(Cl)c3)C2=O)CC1
A. 1

====

# Read-out: Peroxisomal acyl-coenzyme A oxidase 1 (ACOX1) gene, ACOX1 (gene 51)
# Measurement protocol: LTEA_HepaRG_ACOX1: Life Technologies and Expression Analysis (LTEA) Assay for Peroxisomal acyl-coenzyme A oxidase 1 (ACOX1) gene using HepaRG (AID 2283467)
# Condition description: mRNA level, 48 h; actives raise or lower the signal
Calls of active or inactive are those of the source. The calls were made as follows: active = hit-call score of the fitted dose curve at least 0.9, where 1 is the maximum; inactive = score below 0.9.
In this exercise, the only acceptable responses are active, inactive

Solved cases (4 shown):
Molecule: COC(=O)CCCCC(=O)OC
Discrete label: inactive
//
Molecule: CC(O)CO (stereo not drawn)
Discrete label: inactive
//
Molecule: OC1CCC(C2CCCCC2)CC1 (stereo not drawn)
Discrete label: inactive
//
Molecule: CC[C@H](C)[C@@H](C(=O)O)n1sc2ccccc2c1=O
Discrete label: inactive

Q. Short answer needed: outcome of this test for Oc1cccc(O)c1 ?
A. inactive

Q. Queued: CCCOC(=O)c1ccc(O)cc1
A. inactive

Q. Queued: CCCCCCCCC(=O)O
A. inactive

Q. Queued: CC(C)(C)c1cccc(C(C)(C)C)c1O
A. inactive

====

# Read-out: Urokinase-type plasminogen activator receptor (uPAR), PLAUR (gene 5329)
# Measurement protocol: BSK_BE3C_uPAR: BioMAP Diversity Plus: BE3C Assay for Urokinase-type plasminogen activator receptor (uPAR) Biomarker Activity (AID 2283039);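 on outcome: uPAR protein level measured by ELISA on the cells; cells exposed to compound for one day before measurement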
# Condition description: primary human bronchial epithelial cells; actives raise or lower the signal
The source made the active and inactive calls. How the source made its calls: active means hit-call score of the fitted dose curve at least 0.9, where 1 is the maximum; inactive means score below 0.9.
In this exercise, the only acceptable responses are active, inactive

Q. Short answer needed: outcome of this test for CCC(C)(C)C1CCC(O)CC1 (centres undefined) ?
A. inactive

Q. Queued: CN(C)C=O
A. inactive

Q. Queued: Oc1cccc(O)c1
A. inactive

Q. Queued: CC(C)CCCCCCOC(=O)CCCCC(=O)OCCCCCCC(C)C
A. inactive

Q. Queued: COc1ccc([N+](=O)[O-])cc1N
A. inactive

Q. Queued: Cc1cc(CCN2CCN(c3nsc4ccccc34)CC2)cc2c1NC(=O)CC2(C)C
A. active

Q. Queued: CCCCCCCCCCCCCC[N+](C)(C)C
A. active

Q. Queued: CCCCCCC(=O)O
A. inactive

Q. Queued: FC(F)(I)C(F)(F)C(F)(F)C(F)(F)C(F)(F)C(F)(F)I
A. active

Q. Queued: CCCCC(CC)COC(=O)CCCCC(=O)OCC(CC)CCCC (centres undefined)
A. inactive

Q. Queued: NCC(F)(F)C(F)(F)C(F)(F)C(F)(F)C(F)(F)C(F)(F)C(F)(F)F
A. inactive

Q. Queued: C=C(C)C(=O)OCCC(F)(F)C(F)(F)C(F)(F)C(F)(F)C(F)(F)C(F)(F)F
A. inactive

Q. Queued: OC1CCCCC1
A. inactive
